system: human red blood cells; assay: Hemolytic assay; assay type: cell-based; conditions: red cells of human, 100
Peptide text beside a SMILES is read from it. * marks the point of attachment. Acm = CC(=O)NC*
Exam item: assign class 1 to entries whose % Hemolysis 100 μg/ml is below 5% and class 0 to entries at or above 5%. Note that a value of exactly 5% receives class 0.

Q. Field: below-cutoff. Rule: recorded % Hemolysis 100 μg/ml strictly less than 5%. Subject: CSCC[C@H](NC(=O)[C@H](CCC(=O)O)NC(=O)[C@H](Cc1c[nH]c2ccccc12)NC(=O)[C@H](CCC(N)=O)NC(=O)[C@H](Cc1c[nH]c2ccccc12)NC(=O)[C@H](CCCNC(=N)N)NC(=O)[C@H](CC(C)C)NC(=O)[C@H](CSCNC(C)=O)NC(=O)[C@H](CCCCN)NC(=O)[C@@H](N)CCC(=O)O)C(=O)N[C@@H](CCCNC(=N)N)C(=O)N[C@@H](CCCCN)C(=O)N[C@H](C(=O)NCC(=O)NCC(=O)O)C(C)C [LFM W8] (H-EKC(Acm)LRWQWEMRKVGG-OH)
A. class 1

Q. Criterion: % Hemolysis 100 μg/ml strictly below 5%. Is it met by CSCC[C@H](NC(=O)[C@H](CCCNC(=N)N)NC(=O)[C@H](Cc1c[nH]c2ccccc12)NC(=O)[C@H](CCC(N)=O)NC(=O)[C@H](Cc1c[nH]c2ccccc12)NC(=O)[C@H](CCCNC(=N)N)NC(=O)[C@H](CCCNC(=N)N)NC(=O)[C@H](CSCNC(C)=O)NC(=O)[C@H](CCCCN)NC(=O)[C@@H](N)Cc1ccccc1)C(=O)N[C@@H](CCCCN)C(=O)N[C@@H](CCCCN)C(=O)N[C@@H](CC(C)C)C(=O)N[C@@H](Cc1c[nH]c2ccccc12)C(=O)N[C@@H](C)C(=O)O [LFB W14] (H-FKC(Acm)RRWQWRMKKLWA-OH) ?
A. class 1

Q. Problem: For the compound CSCC[C@H](NC(=O)[C@H](CCCNC(=N)N)NC(=O)[C@H](Cc1c[nH]c2ccccc12)NC(=O)[C@H](CCC(N)=O)NC(=O)[C@H](C)NC(=O)[C@H](CCCNC(=N)N)NC(=O)[C@H](CCCNC(=N)N)NC(=O)[C@H](CSCNC(C)=O)NC(=O)[C@H](CCCCN)NC(=O)[C@@H](N)Cc1ccccc1)C(=O)N[C@@H](CCCCN)C(=O)N[C@@H](CCCCN)C(=O)N[C@@H](CC(C)C)C(=O)NCC(=O)N[C@@H](C)C(=O)O [LFB A6] (H-FKC(Acm)RRAQWRMKKLGA-OH; N-terminus assumed) , is % Hemolysis 100 μg/ml under 5%?
A. class 1

Q. Is it true that % Hemolysis 100 μg/ml reported for CSCC[C@H](NC(=O)[C@H](CCCNC(=N)N)NC(=O)[C@H](Cc1c[nH]c2ccccc12)NC(=O)[C@H](CCC(N)=O)NC(=O)[C@H](Cc1c(S(=O)(=O)c2c(C)c(C)c3c(c2C)CCC(C)(C)O3)[nH]c2ccccc12)NC(=O)[C@H](CCCNC(=N)N)NC(=O)[C@H](CCCNC(=N)N)NC(=O)[C@H](CSCNC(C)=O)NC(=O)[C@H](CCCCN)NC(=O)[C@@H](N)Cc1ccccc1)C(=O)N[C@@H](CCCCN)C(=O)N[C@@H](CCCCN)C(=O)N[C@@H](CC(C)C)C(=O)NCC(=O)N[C@@H](C)C(=O)O [LFB PMC6] is less than 5%?
A. class 0

Q. Report whether reported % Hemolysis 100 μg/ml is lower than 5% (strictly) for CSCC[C@H](NC(=O)[C@H](CCCNC(=N)N)NC(=O)[C@H](Cc1c(S(=O)(=O)c2c(C)c(C)c3c(c2C)CCC(C)(C)O3)[nH]c2ccccc12)NC(=O)[C@H](CCC(N)=O)NC(=O)[C@H](Cc1ccc2ccccc2c1)NC(=O)[C@H](CCCNC(=N)N)NC(=O)[C@H](CCCNC(=N)N)NC(=O)[C@H](CSCNC(C)=O)NC(=O)[C@H](CCCCN)NC(=O)[C@@H](N)Cc1ccccc1)C(=O)N[C@@H](CCCCN)C(=O)N[C@@H](CCCCN)C(=O)N[C@@H](CC(C)C)C(=O)NCC(=O)N[C@@H](C)C(=O)O [LFB Nal6 PMC]
A. class 0

Q. Is the reported % Hemolysis 100 μg/ml for CSCC[C@H](NC(=O)[C@H](C)NC(=O)[C@H](Cc1c[nH]c2ccccc12)NC(=O)[C@H](CCC(N)=O)NC(=O)[C@H](Cc1c[nH]c2ccccc12)NC(=O)[C@H](CCCNC(=N)N)NC(=O)[C@H](CC(C)C)NC(=O)[C@H](CSCNC(C)=O)NC(=O)[C@H](CCCCN)NC(=O)[C@@H](N)CCC(=O)O)C(=O)N[C@@H](CCCNC(=N)N)C(=O)N[C@@H](CCCCN)C(=O)N[C@H](C(=O)NCC(=O)NCC(=O)O)C(C)C [LFM A9 W8] (H-EKC(Acm)LRWQWAMRKVGG-OH; N-terminus assumed) strictly below 5%?
A. class 1

Q. Report whether reported % Hemolysis 100 μg/ml is lower than 5% (strictly) for CSCC[C@H](NC(=O)[C@H](CCCNC(=N)N)NC(=O)[C@H](Cc1c[nH]c2ccccc12)NC(=O)[C@H](CCC(N)=O)NC(=O)[C@H](Cc1c[nH]c2ccccc12)NC(=O)[C@H](CCCNC(=N)N)NC(=O)[C@H](CC(C)C)NC(=O)[C@H](CSCNC(C)=O)NC(=O)[C@H](CCCCN)NC(=O)[C@@H](N)CCC(=O)O)C(=O)N[C@@H](CCCNC(=N)N)C(=O)N[C@@H](CCCCN)C(=O)N[C@H](C(=O)NCC(=O)NCC(=O)O)C(C)C [LFM R9 W8] (H-EKC(Acm)LRWQWRMRKVGG-OH; N-terminus assumed)
A. class 1
